Tested on: HT29 cells
Measurement protocol: First order rate constant for anoxic metabolism in HT29 cells (kmet)
Type: in vitro ADME, human
Condition parameters: rate constant of bioreductive metabolism, Table 1
Recorded metric: kmet
Put your answer as a value accompanied by its unit after it.

Please review the following examples before continuing.
Compound	System tested	kmet
[O-][n+]1nc(NCCCCCCNc2c3ccccc3nc3ccccc23)[n+]([O-])c2ccccc21	HT29 cells	18.33 min⁻¹
CCc1n[n+]([O-])c2ccccc2[n+]1[O-]	HT29 cells	1.91 min⁻¹
COCCc1n[n+]([O-])c2ccccc2[n+]1[O-]	HT29 cells	2.01 min⁻¹
CCCN(CCC)CCNc1n[n+]([O-])c2ccccc2[n+]1[O-]	HT29 cells	4.89 min⁻¹
CN(CCCNC(=O)c1cccc2ccc(-c3ccncc3)nc12)CCCNc1n[n+]([O-])c2ccccc2[n+]1[O-]	HT29 cells	9.13 min⁻¹

Would you kindly look at the next entry?
Ask: Need kmet of Nc1n[n+]([O-])c2ccccc2[n+]1[O-] [A, tirapazamine, reference compound] , thanks.
Result: 0.60 min⁻¹
